Experiment: Plasma stability test, mouse plasma;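 note: test compound quantified by LC-MS using positive-mode electrospray ionization and MRM scanning, with an internal standard added in acetonitrile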
Assay type: in vitro ADME
Details: mouse, plasma
Measure name: half-life (min)
Write the number in min without appending the unit.

For the molecule shown here, CC(C)[N+](C)(CCOC(=O)C1c2ccccc2Oc2ccccc21)C(C)C [Propantheline bromide, propantheline bromide, reference compound] , give the reported half-life. 27.7

* * *

Assay: Pharmacokinetic determination in rats (IV and PO, plasma, LCMS/MS)
Format: in vivo, SD rats
Details: male, SD, rat, in vivo, iv, 1 mg/kg
Measure name: half-life
Reply with a number, then the unit it belongs to.

For the compound shown here, C#Cc1c(F)ccc2cc(O)cc(-c3ncc4c(N5CC6CCC(C5)N6)nc(OC[C@@]56CCCN5C[C@H](F)C6)nc4c3F)c12 [MRTX-1133, reference compound] , give the reported half-life. 2.7 h
